Test system: CCRF-CEM
Experiment: NCI one-dose SRB anti-proliferative screen
Format: cell-based
Details: Homo sapiens; CCRF-CEM (Leukemia), NCI one dose 10 µM; read-out: Cell growth inhibition %
Procedure: The twenty-four synthesized compounds were submitted to the National Cancer Institute (NCI), USA. Eighteen hybrids 7a-h, 7k-r, 7u, and 7v were selected by NCI for one-dose assessment of their anti-proliferative activities at 10 µM dose by Sulforhodamine B colorimetric assay. The assessment was performed in 60 cell lines derived from nine tumor subpanels, comprising lung, leukemia, melanoma, colon, renal, CNS, prostate, breast, and ovarian cancer cell lines. […]
measured-metric: inhibition at 10 µM (%)
Numbers only; they are read as %.

O=C(CSc1nnc(-c2ccc3[nH]c(-c4ccc(Cl)cc4)nc3c2)o1)Nc1ccc(C(=O)/C=C/c2ccc(Cl)cc2)cc1 [Compound 7g]
13.6
COc1ccc(-c2nc3cc(-c4nnc(SCC(=O)Nc5ccc(C(=O)/C=C/c6ccc(Cl)cc6)cc5)o4)ccc3[nH]2)cc1OC [Compound 7q]
0

Entry COc1ccc(/C=C/C(=O)c2ccc(NC(=O)CSc3nnc(-c4ccc5[nH]c(-c6ccc(OC)c(OC)c6)nc5c4)o3)cc2)cc1 [Compound 7r] : reported inhibition at 10 µM = ? 38.6

Now this one: COc1ccc(-c2nc3cc(-c4nnc(SCC(=O)Nc5ccc(C(=O)/C=C/c6ccccc6)cc5)o4)ccc3[nH]2)cc1OC [Compound 7p] 11.6

Now this one: COc1cc(-c2nc3cc(-c4nnc(SCC(=O)Nc5ccc(C(=O)/C=C/c6ccc(Cl)cc6)cc5)o4)ccc3[nH]2)cc(OC)c1OC [Compound 7v] 18.4

* * *

Collected inhibition at 10 µM values appear next to each entry.
system: U251; experiment: NCI one-dose SRB anti-proliferative screen; type: cell-based; conditions: Homo sapiens, U-251; U251 (CNS Cancer), NCI one dose 10 µM; read-out: Cell growth inhibition %
Numbers only; they are read as %.

COc1ccc(-c2nc3cc(-c4nnc(SCC(=O)Nc5ccc(C(=O)/C=C/c6ccccc6)cc5)o4)ccc3[nH]2)cc1OC
6.84
O=C(CSc1nnc(-c2ccc3[nH]c(-c4ccc(Cl)cc4)nc3c2)o1)Nc1ccc(C(=O)/C=C/c2ccc(Cl)cc2)cc1
17.8
COc1ccc(/C=C/C(=O)c2ccc(NC(=O)CSc3nnc(-c4ccc5[nH]c(-c6ccc(Cl)cc6)nc5c4)o3)cc2)cc1
3.98
COc1cc(-c2nc3cc(-c4nnc(SCC(=O)Nc5ccc(C(=O)/C=C/c6ccc(Cl)cc6)cc5)o4)ccc3[nH]2)cc(OC)c1OC
22.4
COc1ccc(/C=C/C(=O)c2ccc(NC(=O)CSc3nnc(-c4ccc5[nH]c(-c6ccc(OC)c(OC)c6)nc5c4)o3)cc2)cc1
0
COc1ccc(-c2nc3cc(-c4nnc(SCC(=O)Nc5ccc(C(=O)/C=C/c6ccc(Cl)cc6)cc5)o4)ccc3[nH]2)cc1OC
0
O=C(CSc1nnc(-c2ccc3[nH]c(-c4ccc(Cl)cc4)nc3c2)o1)Nc1ccc(C(=O)/C=C/c2ccccc2)cc1
3.23

Attention now turns to another entry.
Please provide the recorded inhibition at 10 µM for COc1cc(-c2nc3cc(-c4nnc(SCC(=O)Nc5ccc(C(=O)/C=C/c6ccccc6)cc5)o4)ccc3[nH]2)cc(OC)c1OC , tested on U251. 9.89

* * *

test system: 786-0; assay: NCI one-dose SRB anti-proliferative screen; assay type: cell-based; conditions: Homo sapiens; 786-0, Renal cancer; NCI one dose; read-out: Cell growth inhibition %
Collected inhibition at 10 µM values appear next to each entry.
Numbers only; they are read as %.

The following compounds have reported results that may help.
O=C(CSc1nnc(-c2ccc3[nH]c(-c4ccccc4)nc3c2)o1)Nc1ccc(C(=O)/C=C/c2ccccc2)cc1
0
COc1ccc(/C=C/C(=O)c2ccc(NC(=O)CSc3nnc(-c4ccc5[nH]c(-c6ccc(OC)cc6)nc5c4)o3)cc2)cc1
0

Please provide the recorded inhibition at 10 µM for COc1ccc(-c2nc3cc(-c4nnc(SCC(=O)Nc5ccc(C(=O)/C=C/c6ccccc6)cc5)o4)ccc3[nH]2)cc1 , tested on 786-0. 41.2

Now this one: O=C(CSc1nnc(-c2ccc3[nH]c(-c4ccccc4)nc3c2)o1)Nc1ccc(C(=O)/C=C/c2ccc(Cl)cc2)cc1 2.96

Now this one: COc1ccc(/C=C/C(=O)c2ccc(NC(=O)CSc3nnc(-c4ccc5[nH]c(-c6ccccc6)nc5c4)o3)cc2)cc1OC 9.58

Now this one: COc1ccc(/C=C/C(=O)c2ccc(NC(=O)CSc3nnc(-c4ccc5[nH]c(-c6ccccc6)nc5c4)o3)cc2)cc1 22.6

Now this one: COc1cc(/C=C/C(=O)c2ccc(NC(=O)CSc3nnc(-c4ccc5[nH]c(-c6ccccc6)nc5c4)o3)cc2)cc(OC)c1OC 24.6

Now this one: COc1ccc(-c2nc3cc(-c4nnc(SCC(=O)Nc5ccc(C(=O)/C=C/c6cc(OC)c(OC)c(OC)c6)cc5)o4)ccc3[nH]2)cc1 0

Now this one: COc1ccc(-c2nc3cc(-c4nnc(SCC(=O)Nc5ccc(C(=O)/C=C/c6ccc(OC)c(OC)c6)cc5)o4)ccc3[nH]2)cc1 8.7

Now this one: COc1ccc(-c2nc3cc(-c4nnc(SCC(=O)Nc5ccc(C(=O)/C=C/c6ccc(Cl)cc6)cc5)o4)ccc3[nH]2)cc1 0.91
